- test-system: human plasmin (human, UniProt P00747)
- Sequence (P00747 97-810 limits assumed): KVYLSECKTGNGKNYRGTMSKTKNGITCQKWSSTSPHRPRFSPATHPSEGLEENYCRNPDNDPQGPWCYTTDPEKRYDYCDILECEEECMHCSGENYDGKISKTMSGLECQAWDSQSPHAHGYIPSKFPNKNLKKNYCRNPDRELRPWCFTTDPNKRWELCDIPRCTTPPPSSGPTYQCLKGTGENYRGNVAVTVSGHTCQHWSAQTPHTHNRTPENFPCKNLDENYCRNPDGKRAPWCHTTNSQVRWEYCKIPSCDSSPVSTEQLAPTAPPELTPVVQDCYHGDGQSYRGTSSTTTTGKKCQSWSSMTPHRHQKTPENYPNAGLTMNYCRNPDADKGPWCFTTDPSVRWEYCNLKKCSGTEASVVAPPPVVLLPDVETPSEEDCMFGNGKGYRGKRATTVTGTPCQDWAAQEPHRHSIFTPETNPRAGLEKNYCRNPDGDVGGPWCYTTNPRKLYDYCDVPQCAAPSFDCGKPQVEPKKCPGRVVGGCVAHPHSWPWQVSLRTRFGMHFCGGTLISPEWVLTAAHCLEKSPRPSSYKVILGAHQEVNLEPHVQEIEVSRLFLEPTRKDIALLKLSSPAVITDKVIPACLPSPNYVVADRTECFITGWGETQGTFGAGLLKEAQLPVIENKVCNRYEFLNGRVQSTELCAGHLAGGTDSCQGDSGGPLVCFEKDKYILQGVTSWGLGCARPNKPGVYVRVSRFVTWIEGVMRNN
No end group written: not given here.
Collected Plasmin IC50 [nM], inhibition of enzymatic activity, fluorogenic substrate values appear next to each entry.
Give a bare numeral; the unit nM is implied.

Solved cases (3 shown):
binder | unit-annotation | result-number
TFPI mut7EA (SEQ ID NO: 25) (designed binder) EAMHSFCAFKAYTGPCKARIIRFFFNIFTRQCEEFIYGGCEGNQNRFESLEECKKMCTRD | nM | 52
TFPI mut3EA (SEQ ID NO: 19) (designed binder, ends and bridges not checked; cysteine pairing not given here) EAMHSFCAFKAETGPCRAAHPRWFFNIFTRQCEEFIYGGCEGNQNRFESLEECKKMCTRD | nM | 30
TFPI mut4EA (SEQ ID NO: 20) (designed binder) EAMHSFCAFKAETGPCRAAHPRWWFNIFTRQCEEFIYGGCEGNQNRFESLEECKKMCTRD | nM | 24

Incoming: Fill in Plasmin IC50 [nM], inhibition of enzymatic activity, fluorogenic substrate for record TFPI mut4 (SEQ ID NO: 5) (designed binder) MHSFCAFKAETGPCRAAHPRWWFNIFTRQCEEFIYGGCEGNQNRFESLEECKKMCTRD
Outgoing: 24

Incoming: Fill in Plasmin IC50 [nM], inhibition of enzymatic activity, fluorogenic substrate for record TFPI mut3 (SEQ ID NO: 4) (designed binder) MHSFCAFKAETGPCRAAHPRWFFNIFTRQCEEFIYGGCEGNQNRFESLEECKKMCTRD
Outgoing: 32

The measurements presented in this section are drawn from patent US20090170766A1.
